binders and their reported OD450
- assayed target: T1, monkey CD22 protein (ACROBiosystems, catalog number SI2-R52Ha) (monkey, UniProt F6W485 20-688)
- T1 construct: commercial protein; also called monkey CD22-ECD; monkey CD22-ECD-His
- T1 sequence: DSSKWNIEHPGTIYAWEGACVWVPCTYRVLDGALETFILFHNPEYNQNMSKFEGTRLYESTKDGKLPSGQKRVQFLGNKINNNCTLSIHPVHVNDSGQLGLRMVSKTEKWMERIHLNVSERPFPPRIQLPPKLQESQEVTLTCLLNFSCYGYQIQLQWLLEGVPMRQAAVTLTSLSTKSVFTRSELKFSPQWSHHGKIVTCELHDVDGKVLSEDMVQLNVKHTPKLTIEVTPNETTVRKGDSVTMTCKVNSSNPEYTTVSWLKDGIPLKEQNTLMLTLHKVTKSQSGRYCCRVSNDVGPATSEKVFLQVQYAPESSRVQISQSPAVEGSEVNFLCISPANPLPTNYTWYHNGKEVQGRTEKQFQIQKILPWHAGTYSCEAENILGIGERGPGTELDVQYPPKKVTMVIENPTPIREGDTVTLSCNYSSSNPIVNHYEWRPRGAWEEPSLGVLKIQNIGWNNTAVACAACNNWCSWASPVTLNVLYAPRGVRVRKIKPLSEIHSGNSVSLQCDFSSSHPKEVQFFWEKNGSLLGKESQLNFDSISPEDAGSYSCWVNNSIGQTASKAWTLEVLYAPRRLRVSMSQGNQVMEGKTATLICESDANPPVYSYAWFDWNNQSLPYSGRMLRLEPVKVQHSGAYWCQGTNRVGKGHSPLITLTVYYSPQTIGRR
- assay notes: ELISA, coated monkey CD22 protein, antibody 0.01 nM
Give the value in OD450 but do not write OD450 after it.

>>> reading("F1.257.3 (antibody, human IgG1, kappa, V domains shown, human-murine chimeric IgG1 kappa; VL name legible) VH: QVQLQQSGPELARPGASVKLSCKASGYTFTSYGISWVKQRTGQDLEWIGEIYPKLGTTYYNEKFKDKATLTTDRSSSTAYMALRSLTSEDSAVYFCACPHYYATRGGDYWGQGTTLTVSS VL: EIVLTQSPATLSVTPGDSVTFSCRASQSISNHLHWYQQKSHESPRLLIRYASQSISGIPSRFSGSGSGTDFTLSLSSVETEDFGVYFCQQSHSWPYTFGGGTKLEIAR")
0.05

Next binder, please.
Problem: Given the binder F1.280.1 (antibody, human IgG1, kappa, V domains shown, human-murine chimeric IgG1 kappa) VH: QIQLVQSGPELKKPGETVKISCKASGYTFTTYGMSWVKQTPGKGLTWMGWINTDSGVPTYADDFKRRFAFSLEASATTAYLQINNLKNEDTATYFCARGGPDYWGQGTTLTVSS VL: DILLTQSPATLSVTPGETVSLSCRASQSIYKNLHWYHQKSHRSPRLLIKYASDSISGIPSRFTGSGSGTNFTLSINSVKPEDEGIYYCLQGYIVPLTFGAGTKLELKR , write its reported OD450.
Result: 0.05
